B1: SPDEF (parent)
chain: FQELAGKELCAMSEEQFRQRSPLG

Variants of: B1
assay: protein stability index of a GFP-peptide fusion (GPS, HEK-293T) (PSI 1-6); higher = more stable;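 also: lentivirally expressed fusions sorted by FACS into six bins by GFP to DsRed ratio, PSI derived from sequencing read proportions per bin multiplied by bin number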
experimental_setup: c terminus: a fixed tail appended
Label met when protein stability index is at or above 3; otherwise label not met.

{"columns": ["mutation_list", "group_label"],
 "data": [
  ["R20L", "not met"],
  ["R18D", "met"],
  ["M12E", "met"],
  ["R18K", "not met"],
  ["G24D", "met"],
  ["L9P", "met"]
]}

Please tell me: is the variant S13Q at or over 3 in terms of protein stability index?
not met

For this variant, is measured protein stability index 3 or higher? Q16H
not met

Is the recorded value of protein stability index equal to or greater than 3 for this variant? Q2D
met

Threshold query (protein stability index >= 3) on F17G
met

Check if protein stability index >= 3 (inclusive). Item: L9S
met

State whether the measured protein stability index reaches 3, counting equality as reaching it, for L9A
met

Kindly determine if protein stability index recorded for A5T is above or exactly 3.
not met

Hi team, for E15C , is the recorded protein stability index at or above 3?
not met

Can C10H be said to have protein stability index at or above 3?
met

# credit: the supplement of paper PMC10567573
